pKi: −log10 of the molar value.
Entries with reported pKi on MCH receptor (Homo sapiens)
Sequence (Q99705 whole entry): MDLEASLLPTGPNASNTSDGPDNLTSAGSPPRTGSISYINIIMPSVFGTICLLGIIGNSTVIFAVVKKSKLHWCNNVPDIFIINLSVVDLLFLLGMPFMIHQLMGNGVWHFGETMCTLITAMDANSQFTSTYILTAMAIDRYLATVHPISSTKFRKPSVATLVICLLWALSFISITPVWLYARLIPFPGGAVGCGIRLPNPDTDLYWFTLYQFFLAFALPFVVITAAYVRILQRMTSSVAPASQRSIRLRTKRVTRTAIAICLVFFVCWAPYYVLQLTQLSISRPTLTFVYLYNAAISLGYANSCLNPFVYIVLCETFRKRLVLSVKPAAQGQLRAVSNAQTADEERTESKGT
measurement_kind: pKi

>>> reported_value("CC1CCC(C)CC(N2CCC(OCC(=O)Nc3cc(Cl)cc(Cl)c3)(c3ccc(-c4cccc(C#N)c4)cc3)CC2)C1 (stereo not shown)")
7.70
>>> reported_value("N#Cc1cccc(-c2ccc(C3(NCC(=O)Nc4ccc(Cl)c(C(F)(F)F)c4)CCN(C4CCCC4)CC3)cc2)c1")
7.64
>>> reported_value("N#Cc1cccc(-c2ccc(C3(OCC(=O)Nc4cc(Cl)cc(Cl)c4)CCN(C4CCCC4)CC3)cc2)c1")
8.66
>>> reported_value("CN(CC(=O)Nc1ccc(F)c(Cl)c1)C1(c2ccc(-c3cccc(C#N)c3)cc2)CCN(S(C)(=O)=O)CC1")
7.15
>>> reported_value("N#Cc1cccc(-c2ccc(C3(CCC(=O)Nc4cc(Cl)cc(Cl)c4)CCN(CC4CC4)CC3)cc2)c1")
7.57
>>> reported_value("N#Cc1cccc(-c2ccc(C3(OCC(=O)Nc4cc(Cl)cc(Cl)c4)CCN(C4CCC(c5ccccc5)CC4)CC3)cc2)c1 (stereo not shown)")
7.02
>>> reported_value("N#Cc1cccc(-c2ccc(C3(OCC(=O)Nc4cc(Cl)cc(Cl)c4)CCN(Cc4ccsc4)CC3)cc2)c1")
7.57
>>> reported_value("CC(CN1CCC(OCC(=O)Nc2cc(Cl)cc(Cl)c2)(c2ccc(-c3cccc(C#N)c3)cc2)CC1)c1ccccc1 (stereo not shown)")
7.38
>>> reported_value("N#Cc1cccc(-c2ccc(C3(OCC(=O)Nc4ccc(Cl)c(C(F)(F)F)c4)CCN(C4CCCC4)CC3)cc2)c1")
7.31
>>> reported_value("N#Cc1cccc(-c2ccc(C3(OCC(=O)Nc4cc(Cl)cc(Cl)c4)CCN(C4C5CCCC4CCC5)CC3)cc2)c1 (stereo not shown)")
7.32
>>> reported_value("CN(CC(=O)Nc1cc(F)cc(F)c1)C1(c2ccc(-c3cccc(C#N)c3)cc2)CCN(C2CCCC2)CC1")
8.21
>>> reported_value("N#Cc1cccc(-c2ccc(C3(OCC(=O)Nc4cc(Cl)cc(Cl)c4)CCN(C4Cc5ccccc5C4)CC3)cc2)c1")
7.21
>>> reported_value("CN(CC(=O)Nc1cc(Cl)cc(Cl)c1)C1(c2ccc(-c3cccc(C#N)c3)cc2)CCN(C2CCCC2)CC1")
8.07
>>> reported_value("O=C(CNC1(c2ccc(-c3cccc(F)c3)cc2)CCN(C2CCCC2)CC1)Nc1ccc(F)c(Cl)c1")
7.00
>>> reported_value("N#Cc1cccc(-c2ccc(C3(OCC(=O)Nc4ccc(Cl)c(C(F)(F)F)c4)CCN(CC4CC4)CC3)cc2)c1")
7.64
>>> reported_value("N#Cc1cccc(-c2ccc(C3(OCC(=O)Nc4cc(Cl)cc(Cl)c4)CCN(C4CCC5CCCCC5C4)CC3)cc2)c1 (stereo not shown)")
7.44
